- Target or system: plasma kallikrein (PKa) (Homo sapiens)
- Construct: purchased R & D 2497-SE
- Method description: Inhibitory activity against plasma kallikrein in vitro (fluorescence intensity enzyme assay, Pro-Phe-Arg-AMC substrate)
- Format: biochemical
- Stated conditions: plasma kallikrein enzyme assay, Pro-Phe-Arg-AMC substrate; read-out: PKa IC50
Reported metric: IC50 (nM)
Record the value in nM, omitting the unit from your answer.

Reference set, count: 2
[Q] Recorded IC50 for CCN(CC)CCOCc1nn(Cc2ccc(Cn3ccccc3=O)cc2)cc1C(=O)NCc1nccc(OC)c1F [Compound 239] , please?
[A] 6.95

[Q] Recorded IC50 for Cc1nc(C)n(Cc2ccc(Cn3cc(C(=O)NCc4ccc(C(=N)N)cc4F)cn3)cc2)n1 [Compound 351] , please?
[A] 1.13

Continuing:
[Q] Recorded IC50 for COCc1nn(Cc2ccc(Cn3ccccc3=O)cc2)cc1C(=O)NCc1ncc2c(c1F)N(C)CC2 [Compound 391] , please?
[A] 1.4

[Q] Recorded IC50 for COCc1nn(Cc2ccc(-n3ccccc3=O)cc2)cc1C(=O)NCc1cc2ccncc2[nH]1 [Compound 97] , please?
[A] 503

* * *

Below, each of the compounds is paired with its reported pIC50 value.
- Target or system: plasma kallikrein (PKa) (Homo sapiens, UniProt P03952)
- Construct: purchased R & D 2497-SE
- Sequence (P03952 391-638 limits assumed): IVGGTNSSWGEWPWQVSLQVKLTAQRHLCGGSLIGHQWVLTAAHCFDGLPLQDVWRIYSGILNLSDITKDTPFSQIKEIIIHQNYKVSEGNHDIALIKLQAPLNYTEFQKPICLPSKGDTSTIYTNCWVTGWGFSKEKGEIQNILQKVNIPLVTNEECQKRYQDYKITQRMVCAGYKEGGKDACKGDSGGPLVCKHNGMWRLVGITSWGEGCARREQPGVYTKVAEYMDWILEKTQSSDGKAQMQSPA
- Sequence (P03952 20-390 partner limits assumed): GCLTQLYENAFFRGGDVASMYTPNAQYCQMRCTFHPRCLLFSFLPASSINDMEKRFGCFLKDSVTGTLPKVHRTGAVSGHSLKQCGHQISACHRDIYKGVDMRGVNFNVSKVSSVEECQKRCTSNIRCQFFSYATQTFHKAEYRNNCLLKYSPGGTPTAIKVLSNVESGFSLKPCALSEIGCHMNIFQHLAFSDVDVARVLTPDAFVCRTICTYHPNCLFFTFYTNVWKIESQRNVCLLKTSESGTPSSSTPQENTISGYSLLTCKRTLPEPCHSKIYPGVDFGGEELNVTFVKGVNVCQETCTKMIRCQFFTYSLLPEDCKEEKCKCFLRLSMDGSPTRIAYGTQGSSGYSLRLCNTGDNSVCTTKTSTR
- Method description: Inhibitory activity against plasma kallikrein in vitro (fluorescence intensity enzyme assay, Pro-Phe-Arg-AMC substrate)
- Type: biochemical
- Stated conditions: plasma kallikrein enzyme assay, Pro-Phe-Arg-AMC substrate; read-out: PKa IC50
pIC50 (log units): -log10 of the concentration in mol/L.

Reference set, count: 4
[Q] Recorded pIC50 for COc1ccnc(CNC(=O)c2cn(Cc3ccc(Cn4ccccc4=O)cc3)nc2COCC(C)(C)OC)c1F , please?
[A] 7.95

[Q] Recorded pIC50 for N=C(N)c1ccc(CNC(=O)c2cnn(Cc3ccc(OC4CC4)cc3)c2)cc1 , please?
[A] 8.61

[Q] Recorded pIC50 for COc1ccc(F)c(CNC(=O)c2cn(Cc3ccc(Cn4ccccc4=O)cc3)nc2N2CC(F)(F)C2)c1F , please?
[A] 8.01

[Q] Recorded pIC50 for N=C(N)c1ccc(CNC(=O)c2cnn(Cc3cc(Cl)c(C(=O)C4CC4)c(Cl)c3)c2)cc1 , please?
[A] 8.98

Continuing:
[Q] Recorded pIC50 for N=C(N)c1ccc(CNC(=O)c2cnn(Cc3c(Cl)cc(CC4CC4)cc3Cl)c2)cc1 , please?
[A] 8.98

[Q] Recorded pIC50 for COc1ccc(F)c(CNC(=O)c2cn(Cc3ccc(Cn4cc(F)ccc4=O)cc3)nc2[C@H](C)C2COC2)c1F , please?
[A] 7.82

[Q] Recorded pIC50 for Cn1ccc2cnc(CNC(=O)c3cn(Cc4ccc(Cn5ccccc5=O)cc4)nc3C(F)(F)F)c(F)c21 , please?
[A] 8.85

[Q] Recorded pIC50 for COCCOCc1nn(Cc2ccc(Cn3ccccc3=O)cc2)cc1C(=O)NCc1nccc(OC)c1F , please?
[A] 8.06

[Q] Recorded pIC50 for Cc1cc(N)nc(C)c1CNC(=O)c1ccn(Cc2ccc(Cn3ccccc3=O)cc2)c1 , please?
[A] 9.92

[Q] Recorded pIC50 for N=C(N)c1ccc(CNC(=O)c2cnn(Cc3ccc(N4CC5C(C4)C5(F)F)c(C(F)(F)F)c3)c2)cc1 (stereo not drawn) , please?
[A] 9.82

[Q] Recorded pIC50 for COc1ccnc(COC(=O)c2cn(Cc3ccc(Cn4cc(F)ccc4=O)cc3)nc2NC2(C)COC2)c1F , please?
[A] 8.47

[Q] Recorded pIC50 for Cc1cc(C)n(Cc2ccc(Cn3cc(C(=O)NCc4ccc(C(=N)N)cc4)cn3)cc2)n1 , please?
[A] 10.15

* * *

- Target or system: plasma kallikrein (PKa) (Homo sapiens)
- Construct: purchased R & D 2497-SE
- Method description: Inhibitory activity against plasma kallikrein in vitro (fluorescence intensity enzyme assay, Pro-Phe-Arg-AMC substrate)
- Type: biochemical
- Stated conditions: plasma kallikrein enzyme assay, Pro-Phe-Arg-AMC substrate; read-out: PKa IC50
Reported metric: pIC50
pIC50 (log units): -log10 of the concentration in mol/L.

Reference set, count: 2
[Q] Recorded pIC50 for COCc1nn(Cc2c(F)c(F)c(Cn3ccccc3=O)c(F)c2F)cc1C(=O)NCc1c(C)cc(N)nc1C [Compound 28] , please?
[A] 8.63

[Q] Recorded pIC50 for COc1ccnc(CNC(=O)c2cn(Cc3ccc(Cn4ccccc4=O)cc3)nc2N2CC(C)(OC)C2)c1F [Compound 232] , please?
[A] 8.15

Continuing:
[Q] Recorded pIC50 for N#Cc1cc(N2CC3C(C2)C3(F)F)ccc1Cn1cc(C(=O)NCc2cc3ccncc3[nH]2)c(C(F)(F)F)n1 (stereo not shown) [Compound 178] , please?
[A] 8.11

[Q] Recorded pIC50 for Cc1cc(N)nc(C)c1CNC(=O)c1cnc(Cc2cn3cc(C4CC4)ccc3n2)o1 [Compound 18] , please?
[A] 9.39

* * *

- Target or system: FXIa (Homo sapiens, UniProt P03951)
- Sequence (P03951 388-625 limits assumed): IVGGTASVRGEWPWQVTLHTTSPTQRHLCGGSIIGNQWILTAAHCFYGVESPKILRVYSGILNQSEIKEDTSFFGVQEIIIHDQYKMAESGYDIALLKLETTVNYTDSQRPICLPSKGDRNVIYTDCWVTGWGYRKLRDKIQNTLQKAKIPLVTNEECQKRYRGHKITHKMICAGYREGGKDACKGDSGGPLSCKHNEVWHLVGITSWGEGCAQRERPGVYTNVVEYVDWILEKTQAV
- Sequence (P03951 19-387 partner limits assumed): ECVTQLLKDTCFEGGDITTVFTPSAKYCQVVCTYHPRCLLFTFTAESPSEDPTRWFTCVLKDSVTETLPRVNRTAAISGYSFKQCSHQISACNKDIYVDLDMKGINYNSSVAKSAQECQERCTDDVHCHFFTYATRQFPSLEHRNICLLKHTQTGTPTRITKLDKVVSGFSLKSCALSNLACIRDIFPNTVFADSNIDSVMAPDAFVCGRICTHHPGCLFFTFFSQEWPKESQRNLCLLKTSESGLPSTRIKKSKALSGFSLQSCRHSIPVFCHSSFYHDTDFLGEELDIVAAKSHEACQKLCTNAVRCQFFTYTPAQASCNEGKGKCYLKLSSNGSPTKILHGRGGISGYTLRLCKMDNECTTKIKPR
- Method description: Inhibitory activity against FXIa in vitro (biochemical assay)
- Stated conditions: values in nM
Below, each of the compounds is paired with its reported IC50 value.

Reference set, count: 6
[Q] Recorded IC50 for Cc1cc(N)nc(C)c1CNC(=O)c1cn(Cc2cn3cc(C4CC4)ccc3n2)nn1 [Compound 6] , please?
[A] < 500 nM

[Q] Recorded IC50 for Cc1cc(N)nc(C)c1CNC(=O)c1ncn(Cc2ccc(Cn3ccccc3=O)cc2)n1 [Compound 11] , please?
[A] > 500 nM

[Q] Recorded IC50 for COCc1nn(Cc2ccc3ncc(Cl)cc3c2)cc1C(=O)NCc1c(C)cc(N)nc1C [Compound 5] , please?
[A] < 500 nM

[Q] Recorded IC50 for COCc1nn(Cc2ccc(Cn3cccn3)cc2)cc1C(=O)NCc1c(C)cc(N)nc1C [Compound 14] , please?
[A] > 500 nM

[Q] Recorded IC50 for Cc1cc(N)nc(C)c1CNC(=O)c1ccc(Cc2ccc3ncc(Cl)cc3c2)s1 [Compound 3] , please?
[A] < 500 nM

[Q] Recorded IC50 for N#Cc1cc(N2CC3C(C2)C3(F)F)ccc1Cn1cc(C(=O)NCc2ccc(C(=N)N)cc2)cn1 (stereo not shown) [Compound 8] , please?
[A] < 500 nM

Now for another entry.
[Q] Recorded IC50 for Cc1cc(N)nc(C)c1CNC(=O)c1cn(Cc2ccc3ncc(Cl)cc3c2)nn1 [Compound 9] , please?
[A] < 500 nM

* * *

Below, each of the compounds is paired with its reported IC50 value.
- Target or system: plasma kallikrein (PKa) (Homo sapiens, UniProt P03952)
- Construct: purchased R & D 2497-SE
- Method description: Inhibitory activity against plasma kallikrein in vitro (fluorescence intensity enzyme assay, Pro-Phe-Arg-AMC substrate)
- Assay type: biochemical
- Stated conditions: plasma kallikrein enzyme assay, Pro-Phe-Arg-AMC substrate; read-out: PKa IC50
Record the value in nM, omitting the unit from your answer.

[Q] Recorded IC50 for COCc1cn(Cc2ccc(Cn3ccccc3=O)cc2)nc1C(=O)NCc1c(C)cc(N)nc1C , please?
[A] 0.65

[Q] Recorded IC50 for COc1ccnc(CNC(=O)c2cn(Cc3ccc(CN4C(=O)C5(CC5)c5ccc(F)cc54)cc3)nc2C(F)(F)F)c1F , please?
[A] 613

[Q] Recorded IC50 for CN(C)c1ccnc(CNC(=O)c2cn(Cc3ccc(Cn4ccccc4=O)cc3)nc2C2CC(F)(F)C2)c1F , please?
[A] 6.29

[Q] Recorded IC50 for C#Cc1nn(Cc2ccc(Cn3ccccc3=O)cc2)cc1C(=O)NCc1nccc(OC)c1F , please?
[A] 58.7

[Q] Recorded IC50 for COCc1nn(Cc2ccc(Cn3ccccc3=O)cc2)cc1C(=O)NCc1c(C)cc2nccn2c1C , please?
[A] 0.65

[Q] Recorded IC50 for COCc1nn(Cc2ccc(Cn3cccn3)cc2)cc1C(=O)NCc1c(C)cc(N)nc1C , please?
[A] 0.213

[Q] Recorded IC50 for CCc1c(N)nc(C)c(CNC(=O)c2ncn(Cc3ccc(Cn4ccccc4=O)cc3)n2)c1C , please?
[A] 0.67

[Q] Recorded IC50 for COCc1nn(Cc2ccc(Cn3ccccc3=O)cc2)cc1C(=O)NCc1cc2cnccc2n1C [Compound 139] , please?
[A] 12.6

Continuing:
[Q] Recorded IC50 for COc1ccnc(CNC(=O)c2cn(Cc3ccc(Cn4ccccc4=O)cc3)nc2COCC(=O)N(C)C)c1F , please?
[A] 26.3

[Q] Recorded IC50 for N=C(N)c1ccc(CNC(=O)c2cnn(Cc3cc(F)c(OC4CC4)c(F)c3)c2)cc1 , please?
[A] 1.87

* * *

Below, each of the molecules is paired with its reported IC50 value.
- Target or system: KLK1 (Homo sapiens, UniProt P06870)
- Sequence (P06870 25-262, species assumed): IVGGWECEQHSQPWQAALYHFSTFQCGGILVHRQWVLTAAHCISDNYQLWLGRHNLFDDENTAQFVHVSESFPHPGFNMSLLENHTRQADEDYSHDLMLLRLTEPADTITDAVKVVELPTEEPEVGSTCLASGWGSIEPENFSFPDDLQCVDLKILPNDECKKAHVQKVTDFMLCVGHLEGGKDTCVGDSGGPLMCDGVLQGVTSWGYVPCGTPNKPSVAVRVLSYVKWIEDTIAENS
- Method description: Inhibitory activity against KLK1 in vitro (biochemical assay)
- Stated conditions: values in nM

Reference set, count: 3
[Q] Recorded IC50 for Cc1cc(N)nc(C)c1CNC(=O)c1ncn(Cc2ccc(Cn3ccccc3=O)cc2)n1 , please?
[A] > 500 nM

[Q] Recorded IC50 for COCc1nn(Cc2ccc(Cn3cccn3)cc2)cc1C(=O)NCc1c(C)cc(N)nc1C , please?
[A] > 500 nM

[Q] Recorded IC50 for Cc1cc(N)nc(C)c1CNC(=O)c1cn(Cc2ccc3ncc(Cl)cc3c2)nn1 , please?
[A] < 500 nM

Continuing:
[Q] Recorded IC50 for N#Cc1cc(N2CC3C(C2)C3(F)F)ccc1Cn1cc(C(=O)NCc2ccc(C(=N)N)cc2)cn1 (stereo not shown) , please?
[A] < 500 nM
